- Target Of Assay: noradrenaline (NA) reuptake receptors / Noradrenaline uptake sites (transporters) (Rattus norvegicus, UniProt Q63380)
- Sequence (Q63380 1-617): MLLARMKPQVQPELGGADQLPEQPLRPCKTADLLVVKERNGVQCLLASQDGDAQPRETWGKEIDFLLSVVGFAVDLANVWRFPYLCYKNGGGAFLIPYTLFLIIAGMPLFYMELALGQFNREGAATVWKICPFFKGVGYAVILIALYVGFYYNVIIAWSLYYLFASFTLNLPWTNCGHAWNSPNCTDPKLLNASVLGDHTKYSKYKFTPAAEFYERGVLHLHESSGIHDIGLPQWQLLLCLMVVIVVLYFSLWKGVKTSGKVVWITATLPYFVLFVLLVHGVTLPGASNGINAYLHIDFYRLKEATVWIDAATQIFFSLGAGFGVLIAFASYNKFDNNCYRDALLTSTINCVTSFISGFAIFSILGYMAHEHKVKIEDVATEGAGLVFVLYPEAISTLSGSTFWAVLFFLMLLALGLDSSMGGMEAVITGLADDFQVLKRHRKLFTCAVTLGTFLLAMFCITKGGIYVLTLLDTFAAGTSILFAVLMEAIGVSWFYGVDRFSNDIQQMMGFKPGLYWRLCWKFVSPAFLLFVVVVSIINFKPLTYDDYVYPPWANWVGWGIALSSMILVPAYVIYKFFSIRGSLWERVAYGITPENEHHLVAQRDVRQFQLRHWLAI
- Experimental Protocol: Affinity for noradrenaline reuptake sites, [3H]-nisoxetine radioligand, rat cerebral cortex
- Format: binding
- Test Settings: Rat brain; bounds given in μM; read-out: K1 values, Noradrenaline uptake sites (transporters)
Readout Kind: Ki

What does the record list as Ki for O=[N+]([O-])c1ccc(OC(c2ccccc2)C2CCNCC2)cc1 (stereo not shown) [Compound F-98610-PD] ?
> 1 µM

What does the record list as Ki for O=[N+]([O-])c1ccc(O[C@H](c2ccccc2)C2CCNCC2)cc1 [Compound F-98603-PD] ?
> 1 µM

What does the record list as Ki for FC(F)(F)c1ccc(O[C@H](c2ccccc2)C2CCNCC2)cc1 [Compound F-98408-TA] ?
> 10 µM

What does the record list as Ki for FC(F)(F)c1ccc(OC(c2ccccc2)C2CCNCC2)cc1 (stereo not shown) [Compound F-98404-TA] ?
> 10 µM
